Assay: physchem
Format: physicochemical
Collected LogP values appear next to each entry.

// query Reported LogP, compound O=C(NC(CON1C(=O)c2ccccc2C1=O)Cc1ccc(Cl)cc1Cl)c1cc(Cl)ncc1Oc1cccc(C2CC2)c1 (stereo not shown) : ____
// result 5.62^[a]

// query GET /values?readout=LogP&item= Cc1ccc(CC2CON=C(c3c(Oc4cccc(C(F)(F)F)c4)cnc(Cl)c3I)N2)c(C)c1 (stereo not shown)
// result 4.66^[a]

// query Look up LogP: Cc1ccc(CC2CON=C(c3cc(Cl)ncc3Oc3ccc4ccccc4c3)N2)c(C)c1 (racemic)
// result 4.77^[a]

// query Form field: reported LogP of Fc1c(Br)cccc1Oc1cnc(Cl)cc1C1=NOCC(Cc2ccc(Cl)cc2Cl)N1 (racemic)
// result 4.69^[a]

// query For the compound shown here, OC1CON=C(c2cc(Cl)ncc2Oc2cccc(C(F)(F)F)c2)N1 (stereo not shown) , give the reported LogP.
// result 2.11^[a]

// query Item Cc1ccc(CC2CON=C(c3cc(Cl)ncc3Oc3ccc4ccsc4c3)N2)c(C)c1 (racemic) has what recorded LogP?
// result 4.59^[a]

// query Query (compound): COc1cccc(Oc2cnc(Cl)cc2C2=NOCC(Cc3ccc(Br)cc3Cl)N2)c1 (racemic) ; field requested: LogP
// result 4.37^[a]

====

Test: physchem
Assay type: physicochemical
Conditions: Table 1, compounds of formula (I); method [a]: LC-UV, acidic range, 0.1% formic acid in water and acetonitrile
recorded-endpoint: chromatographic logP
Answer with a number only.

Examples with answers:
INSERT INTO results (compound, reported_measurement) VALUES
  ('Cc1ccc(CC2CON=C(c3cc(Cl)ncc3Oc3cccc(C(F)(F)F)c3)N2)c(C)c1 (racemic)', 4.56),
  ('Cc1ccc(C[C@@H]2CON=C(c3cc([C@@H]4CCOC4)ncc3Oc3cccc(C(F)(F)F)c3)N2)cc1 (racemic)', 3.78),
  ('Cc1ccc(CC2CON=C(c3ccncc3Oc3cccc(C(F)(F)F)c3)N2)cc1 (racemic)', 3.47),
  ('Cc1cc(C2CC2)ccc1CC1CON=C(c2cc(Cl)ncc2Oc2cccc(C(F)(F)F)c2)N1 (racemic)', 4.88),
  ('COc1ccc(C2NC(c3cc(Cl)ncc3Oc3cccc(C(F)(F)F)c3)=NOC2(F)F)cc1 (racemic)', 4.14);

// query Bench note: what chromatographic logP did Cc1ccc(CC2CC(=O)N=C(c3cc(Cl)ncc3Oc3cccc(C(F)(F)F)c3)N2)c(C)c1 (racemic) show?
// result 4.62

// query For the compound Cc1cc(C2=NOCC(Cc3ccc(Cl)cc3Cl)N2)c(Oc2cccc(C3CC3)c2F)cn1 (racemic) , what chromatographic logP is on record?
// result 4.23

====

Recorded LogP, one value per entry.
Experiment: physchem
Assay type: physicochemical

Worked set:
INSERT INTO results (compound, reported_measurement) VALUES
  ('Cc1ccc(CC2CON=C(c3cc(Cl)ncc3Oc3cccc(C(F)F)c3)N2)c(C)c1 (racemic) [Compound I-003]', '4.08^[a]'),
  ('Cc1ccc(CC2CON=C(c3cc(Cl)ncc3Oc3cccc(C)c3F)N2)c(C)c1 (racemic) [Compound I-032]', '4.59^[a]');

// query Returns the measured LogP for the input compound. Input: FC(F)(F)c1cccc(Oc2cnc(Cl)cc2C2=NOCC(c3ccc(Cl)cc3)N2)c1 (racemic) [Compound I-050]
// result 3.99^[a]

// query Returns the measured LogP for the input compound. Input: COc1cccc(Oc2cnc(Cl)cc2C(=O)NC(CON2C(=O)c3ccccc3C2=O)Cc2ccc(Br)cc2Cl)c1 (stereo not drawn) [3-08]
// result 5.05^[a]

// query Which LogP is reported for this compound? Cc1ccc(C2CON=C(c3cc(Cl)ncc3Oc3cccc(C(F)(F)F)c3)N2)cc1C (racemic) [Compound I-049]
// result 4.24^[a]

// query Which LogP value is on record for Fc1c(Oc2cnc(Cl)cc2C2=NOCC(Cc3ccc(Cl)cc3Cl)N2)cccc1OC(F)(F)F (stereo not drawn) [Compound I-149] ?
// result 4.88^[a]

// query Given the entry Cc1ccc(CC2CON=C(c3cc(C)ncc3Oc3cccc(C(F)F)c3)N2)c(C)c1 (racemic) [Compound I-010] , report its measured LogP.
// result 3.41^[a]

// query I would be grateful if you could share the reported LogP for CSc1cccc(Oc2cnc(Cl)cc2C2=NOCC(Cc3ccc(C)cc3C)N2)c1 (racemic) [Compound I-064] .
// result 4.66^[a]

// query Find the recorded LogP belonging to Cc1ccc(CC2CON=C(c3cc(Cl)nc(Cl)c3Oc3cccc(C(F)(F)F)c3)N2)c(C)c1 (racemic) [Compound I-127] and report it.
// result 5.08^[a]

// query What value of LogP has been recorded for this entry: COc1cc(C(=O)O)c(Oc2cccc(C(F)(F)F)c2)cn1 [Compound 1-15]
// result 2.86^[a]

// query Report LogP for FC(F)(F)c1cccc(Oc2cnc(Cl)cc2C2=NOCC(c3ccc4c(c3)CCO4)N2)c1 (racemic) [Compound I-044] please.
// result 3.57^[a]

// query I have this compound here, CSc1cccc(Oc2cnc(Cl)cc2C2=NOCC(Cc3ccc(C)cc3C)N2)c1F (stereo not drawn) [Compound I-154] , and I need its recorded LogP.
// result 4.47^[a]
